The origin of these recorded values is PubChem BioAssay (NCI).

Below is a list of entries, each paired with its recorded TGI value.
tested on: SNB-75 CNS; test: NCI tumour cell line growth inhibition, 48 h
Metric name: TGI

>  <Compound>
Clc1ccc(C2SCc3nc4ccccc4n32)cc1 (configuration not stated)

>  <Assay value>
24.9 µM

$$$$
>  <Compound>
N#C/C(=C\c1ccc[nH]1)c1cc(-c2ccc(Cl)cc2)nn1-c1ccccc1

>  <Assay value>
16 µM

$$$$
>  <Compound>
O=C(CC12C3C4C1C1C2C3C41CC(=O)NO)NO (configuration not stated)

>  <Assay value>
81 µM

$$$$
>  <Compound>
O=c1oc2ccccc2c(O)c1C(c1ccc(OCc2ccccc2)cc1)c1c(O)c2ccccc2oc1=O

>  <Assay value>
65.6 µM

$$$$
>  <Compound>
CC(C)(C)OC(=O)N1C(=O)C2CCCC21 (configuration not stated)

>  <Assay value>
> 100 µM

$$$$
>  <Compound>
CCN1CCN(c2ccc(NC(=O)Nc3nc4ccc(-c5ccccc5OC)cc4s3)cc2)CC1

>  <Assay value>
2.86 µM

$$$$
>  <Compound>
CCC[N+](C)(C)CCCNC(=O)c1c(O)c2ccccc2[nH]c1=O

>  <Assay value>
> 100 µM

$$$$
>  <Compound>
O=C(O)C(Cc1ccccc1)Cc1ccccc1

>  <Assay value>
> 100 µM

$$$$
>  <Compound>
N#Cc1ccc(-c2ccc(Cl)cc2)n(C2OC(CO)C(O)C(O)C2O)c1=S (configuration not stated)

>  <Assay value>
> 100 µM

$$$$
>  <Compound>
CC1=CC(C)=N/C(=N/S(=O)(=O)c2cc(C)c(Cl)cc2SCc2ccccc2)NN1

>  <Assay value>
> 100 µM

$$$$
>  <Compound>
CC(=O)/C=C(/C)[O-].CC(=O)/C=C(/C)[O-].CC(=O)[CH-]C(C)=O.CC(=O)[CH-]C(C)=O.[Zr+4]

>  <Assay value>
> 100 µM

$$$$
>  <Compound>
CCOc1ccccc1N=NC1C(=O)N(C(=O)CC(=O)Nc2ccccc2C)N=C1C (configuration not stated)

>  <Assay value>
54.6 µM

$$$$
>  <Compound>
Cc1cc(N(CCC#N)S(=O)(=O)c2ccccc2)ccc1C=Nc1ccc(C(=O)O)cc1

>  <Assay value>
29.1 µM

$$$$
>  <Compound>
CN(C(=O)C(C)(C)C)c1ccccc1I(=O)=O

>  <Assay value>
> 100 µM

$$$$
>  <Compound>
COc1c(C(N)=O)cc(-c2ccc(Cl)cc2)cc1-c1ccc(S(N)(=O)=O)cc1

>  <Assay value>
> 25 µM

$$$$
>  <Compound>
COC(=O)/C1=C/C=C\C[C@@]2(C)CC(c3ccoc3)OC(=O)[C@@H]2CC[C@H]1C (some centres not stated)

>  <Assay value>
> 25 µM

$$$$
>  <Compound>
CN(C)C(=O)N1N[C@H](c2ccccc2)[C@@H]1c1ccccc1

>  <Assay value>
> 100 µM

$$$$
>  <Compound>
Cc1nnc(N/N=C/c2ccc([N+](=O)[O-])o2)[nH]c1=O

>  <Assay value>
67.5 µM

$$$$
>  <Compound>
CCOC(=O)c1ccc2nc3n(c2c1)C(c1c(F)cccc1F)SC3 (configuration not stated)

>  <Assay value>
> 100 µM

$$$$
>  <Compound>
[N-]=[N+]=Nc1cc(=O)[nH]c2ccccc12

>  <Assay value>
> 100 µM

$$$$
>  <Compound>
O=C(Nc1ccc(Cl)c(Cl)c1)c1ccc(NC2=C(Cl)C(=O)N(Cc3ccccc3)C2=O)cc1

>  <Assay value>
56.4 µM

$$$$
>  <Compound>
O=C1CCC2(O)c3ccccc3C2Cc2ccccc21 (configuration not stated)

>  <Assay value>
> 100 µM

$$$$
>  <Compound>
COc1ccc(N=NC2=C(O)CCC2=O)cc1

>  <Assay value>
> 100 µM

$$$$
>  <Compound>
C=C(C)C1(Sc2ccc(OC)cc2)CC1

>  <Assay value>
78.5 µM

$$$$
>  <Compound>
Cc1cc(I)cc(CN(C)CCCN2CCC(C)CC2)c1O

>  <Assay value>
23 µM

$$$$
>  <Compound>
COc1cc(C2c3cccc4cccc(c34)C3CCC(=O)N32)cc(OC)c1O (configuration not stated)

>  <Assay value>
> 50 µM

$$$$
>  <Compound>
OC(CCN1CCN(CCOC(c2ccccc2)c2ccccc2)CC1)c1ccccc1 (configuration not stated)

>  <Assay value>
> 100 µM

$$$$
>  <Compound>
CCN(CC)/N=C\c1c2ccccc2cc2ccccc12

>  <Assay value>
68.7 µM

$$$$
>  <Compound>
CC1Cc2c(Cl)ncnc2N(C)c2ccccc21 (configuration not stated)

>  <Assay value>
33.5 µM

$$$$
>  <Compound>
O=C(Nc1nc2c(C(F)(F)F)cccc2s1)c1cc(Cl)ccc1O

>  <Assay value>
41.6 µM

$$$$
>  <Compound>
CCN(CC)CCOc1nc2ccccc2c2c1-c1ccc(OC)cc1C2=O

>  <Assay value>
5.19 µM

$$$$
>  <Compound>
CCOC(=O)c1sc2nc(SC)nc3c2c1NCN3C

>  <Assay value>
22.9 µM

$$$$
>  <Compound>
O=C1CCCC1CC(CN1CCOCC1)Sc1nnnn1-c1ccccc1 (configuration not stated)

>  <Assay value>
96.7 µM

$$$$
>  <Compound>
Clc1cnc(Nc2ccc(OCCN3CCCC3)cc2)nc1NCc1ccco1

>  <Assay value>
4.27 µM

$$$$
>  <Compound>
N=C(N)SCc1nc(-c2ccc(Cl)cc2)no1

>  <Assay value>
59.4 µM

$$$$
>  <Compound>
COc1cc2nc(-c3cccs3)nc(N3CCN(c4ccccc4)CC3)c2cc1OC

>  <Assay value>
> 100 µM

$$$$
>  <Compound>
Cc1cc2nc3c(C#N)c(C)c(CCCl)c(Cl)n3c2cc1C

>  <Assay value>
4.63 µM

$$$$
>  <Compound>
COc1cc2c(cc1OC)C(Cl)C(c1ccc(Br)cc1)=C2Cl (configuration not stated)

>  <Assay value>
27.7 µM

$$$$
>  <Compound>
COC(=O)[C@]1(C)CCC[C@@]2(C)C3=C(CC[C@H]12)C[C@@H](CC(OC(C)=O)OC(C)=O)[C@@H](C)C3

>  <Assay value>
30.5 µM

$$$$
>  <Compound>
O=C(CCCCCNC(=O)c1ccc(Cl)cc1)NO

>  <Assay value>
30.8 µM

$$$$
>  <Compound>
Cc1cc(C)[n+]2c(c1)C=CC2

>  <Assay value>
41.9 µM

$$$$
>  <Compound>
Cc1cc(OCc2ccc(C(F)(F)F)cc2)c2c(c1)C(=O)C=C(NCCN1CCCC1)C2=O

>  <Assay value>
2.89 µM

$$$$
